The origin of these recorded values is the supplement of paper PMC6555819.

Tested on: RARg homodimer (NR concentration 270 nM)
experiment-notes: PBM binding z-score (relative to random genomic background probes); higher = stronger binding; sequences stand for … in GC…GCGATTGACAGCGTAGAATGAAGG
measured-quantity: PBM binding z-score

- sequence-entry: "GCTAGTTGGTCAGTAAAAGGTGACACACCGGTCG"
  measured-number: 1.17
- sequence-entry: "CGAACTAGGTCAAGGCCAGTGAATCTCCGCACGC"
  measured-number: 4.63
- sequence-entry: "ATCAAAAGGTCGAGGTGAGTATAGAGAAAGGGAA"
  measured-number: 4.98
- sequence-entry: "CGTCCAAGGTCTAGGTCAGTGAAAGAGACTCGAA"
  measured-number: 2.4
- sequence-entry: "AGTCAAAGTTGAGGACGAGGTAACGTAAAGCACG"
  measured-number: 1.24
- sequence-entry: "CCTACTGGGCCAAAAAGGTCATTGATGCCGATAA"
  measured-number: 4.42
- sequence-entry: "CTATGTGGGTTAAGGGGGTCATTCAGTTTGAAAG"
  measured-number: 4.42
- sequence-entry: "AGAATGGGGTTACCAAAGATCAGGGAAACGCTTG"
  measured-number: 1.43
- sequence-entry: "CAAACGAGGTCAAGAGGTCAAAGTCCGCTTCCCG"
  measured-number: 8.65
- sequence-entry: "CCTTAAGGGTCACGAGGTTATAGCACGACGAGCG"
  measured-number: 7.23
- sequence-entry: "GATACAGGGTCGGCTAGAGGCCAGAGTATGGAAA"
  measured-number: 1.5
- sequence-entry: "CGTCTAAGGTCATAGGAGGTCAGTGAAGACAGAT"
  measured-number: 7.8

---

Tested on: PPARg:RXRa 270nM:90nM, anti-RXR (NR concentration 270 nM, RXRa partner concentration 90 nM)
experiment-notes: PBM binding z-score (relative to random genomic background probes); higher = stronger binding; sequences stand for … in GC…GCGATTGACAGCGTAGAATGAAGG

- sequence-entry: "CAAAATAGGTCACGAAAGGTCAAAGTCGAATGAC"
  PBM binding z-score: 8.59
- sequence-entry: "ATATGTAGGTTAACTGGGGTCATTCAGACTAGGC"
  PBM binding z-score: 6.61
- sequence-entry: "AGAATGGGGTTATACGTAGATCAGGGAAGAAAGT"
  PBM binding z-score: 4
- sequence-entry: "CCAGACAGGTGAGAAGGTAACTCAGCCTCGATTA"
  PBM binding z-score: 0.838
- sequence-entry: "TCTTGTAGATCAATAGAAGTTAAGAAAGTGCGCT"
  PBM binding z-score: 1.83
- sequence-entry: "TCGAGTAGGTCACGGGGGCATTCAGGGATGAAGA"
  PBM binding z-score: 7.99

---

Test system: PPARg homodimer (NR concentration 180 nM)
experiment-notes: PBM binding z-score (relative to random genomic background probes); higher = stronger binding; sequences stand for … in GC…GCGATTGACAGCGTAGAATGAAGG
Item-by-item account of PBM binding z-score

- sequence-entry: "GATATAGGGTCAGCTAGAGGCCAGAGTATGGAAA"
  PBM binding z-score: 1.99
- sequence-entry: "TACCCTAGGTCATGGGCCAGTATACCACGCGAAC"
  PBM binding z-score: 2.52
- sequence-entry: "CCGAGAAGGTTACGAGGGGGCATTCAGTGCGAAT"
  PBM binding z-score: 2.11
- sequence-entry: "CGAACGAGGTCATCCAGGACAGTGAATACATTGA"
  PBM binding z-score: 4.36
- sequence-entry: "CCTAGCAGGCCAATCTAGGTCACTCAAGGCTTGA"
  PBM binding z-score: 0.707
- sequence-entry: "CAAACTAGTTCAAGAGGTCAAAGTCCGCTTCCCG"
  PBM binding z-score: 5.22
- sequence-entry: "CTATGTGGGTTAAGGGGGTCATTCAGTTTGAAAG"
  PBM binding z-score: 6.11
- sequence-entry: "ACGCGGAGGACAAAGGTCAGAGCTACGCCAGTGA"
  PBM binding z-score: 2.67
- sequence-entry: "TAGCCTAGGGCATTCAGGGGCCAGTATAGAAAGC"
  PBM binding z-score: -0.114
- sequence-entry: "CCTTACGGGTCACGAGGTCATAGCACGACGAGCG"
  PBM binding z-score: 5.34
- sequence-entry: "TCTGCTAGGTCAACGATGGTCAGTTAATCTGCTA"
  PBM binding z-score: 1.07
- sequence-entry: "ATCGAAAGGTCAAAGGTGAGTATACCCACCCGAA"
  PBM binding z-score: 4.41
- sequence-entry: "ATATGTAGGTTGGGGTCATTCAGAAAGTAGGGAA"
  PBM binding z-score: 3.59
- sequence-entry: "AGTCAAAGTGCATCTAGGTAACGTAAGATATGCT"
  PBM binding z-score: 0.197
- sequence-entry: "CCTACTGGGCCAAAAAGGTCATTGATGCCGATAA"
  PBM binding z-score: 3.07
- sequence-entry: "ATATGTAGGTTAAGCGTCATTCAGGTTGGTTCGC"
  PBM binding z-score: 1.04
- sequence-entry: "TAGCCTAGGTCATTCAGGGGCCAGCATAGAAAGC"
  PBM binding z-score: 1.32
- sequence-entry: "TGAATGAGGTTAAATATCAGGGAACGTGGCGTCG"
  PBM binding z-score: 0.766
- sequence-entry: "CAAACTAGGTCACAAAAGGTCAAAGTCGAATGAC"
  PBM binding z-score: 6.01
- sequence-entry: "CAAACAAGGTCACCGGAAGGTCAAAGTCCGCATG"
  PBM binding z-score: 10.2
- sequence-entry: "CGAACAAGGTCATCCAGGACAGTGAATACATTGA"
  PBM binding z-score: 3.58
- sequence-entry: "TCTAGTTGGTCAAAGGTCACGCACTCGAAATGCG"
  PBM binding z-score: 6.55
- sequence-entry: "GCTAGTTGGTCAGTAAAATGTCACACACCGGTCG"
  PBM binding z-score: 1.21
- sequence-entry: "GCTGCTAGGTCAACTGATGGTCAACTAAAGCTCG"
  PBM binding z-score: 2.3
- sequence-entry: "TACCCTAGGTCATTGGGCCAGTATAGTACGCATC"
  PBM binding z-score: 1.89
- sequence-entry: "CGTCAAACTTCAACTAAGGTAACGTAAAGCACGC"
  PBM binding z-score: 0.684
- sequence-entry: "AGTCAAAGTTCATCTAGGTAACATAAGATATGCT"
  PBM binding z-score: 2.88
- sequence-entry: "ATATGTAGGTTAGCTGAGGTCATTCAGACTAGGC"
  PBM binding z-score: 3.04
- sequence-entry: "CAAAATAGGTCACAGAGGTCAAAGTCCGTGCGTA"
  PBM binding z-score: 4.67
- sequence-entry: "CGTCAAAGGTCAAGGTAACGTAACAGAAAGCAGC"
  PBM binding z-score: 4.75
- sequence-entry: "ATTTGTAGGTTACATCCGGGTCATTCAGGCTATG"
  PBM binding z-score: 3.38
- sequence-entry: "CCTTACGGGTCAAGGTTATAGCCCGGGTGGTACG"
  PBM binding z-score: 1.69
- sequence-entry: "CGTCAAAGTTCAACTAAGGTCACGTAAAGCACGC"
  PBM binding z-score: 6.25
- sequence-entry: "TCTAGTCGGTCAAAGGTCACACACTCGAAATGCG"
  PBM binding z-score: 5.59
- sequence-entry: "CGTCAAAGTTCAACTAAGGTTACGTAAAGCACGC"
  PBM binding z-score: 3.83
- sequence-entry: "CCTCGGAGGACAACAGGAGGTCATAGCTGCCAGA"
  PBM binding z-score: 1.63
- sequence-entry: "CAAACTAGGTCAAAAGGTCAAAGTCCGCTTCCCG"
  PBM binding z-score: 7.65
- sequence-entry: "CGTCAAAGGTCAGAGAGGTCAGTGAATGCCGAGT"
  PBM binding z-score: 5.81
- sequence-entry: "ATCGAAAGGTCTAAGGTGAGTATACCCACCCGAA"
  PBM binding z-score: 0.384
- sequence-entry: "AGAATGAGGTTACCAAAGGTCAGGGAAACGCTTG"
  PBM binding z-score: 4.43
- sequence-entry: "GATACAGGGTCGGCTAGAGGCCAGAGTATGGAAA"
  PBM binding z-score: 0.88
- sequence-entry: "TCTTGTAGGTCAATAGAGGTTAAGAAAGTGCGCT"
  PBM binding z-score: 2.69
- sequence-entry: "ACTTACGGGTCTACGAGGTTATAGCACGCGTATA"
  PBM binding z-score: 0.507
- sequence-entry: "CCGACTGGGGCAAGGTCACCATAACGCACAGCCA"
  PBM binding z-score: 2.64
- sequence-entry: "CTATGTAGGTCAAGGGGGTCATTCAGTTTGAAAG"
  PBM binding z-score: 5.3
- sequence-entry: "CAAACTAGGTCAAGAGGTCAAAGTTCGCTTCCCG"
  PBM binding z-score: 10.9
- sequence-entry: "TCTCGGAGGACACTAAAGGTCAGAGCTCGACATC"
  PBM binding z-score: 2.43
- sequence-entry: "GCTTACAGGTCAAAGGTTATAGCATGAATAGAAT"
  PBM binding z-score: 3.21
- sequence-entry: "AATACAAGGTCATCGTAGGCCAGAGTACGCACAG"
  PBM binding z-score: 2.81
- sequence-entry: "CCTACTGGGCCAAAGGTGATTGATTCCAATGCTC"
  PBM binding z-score: 0.439
- sequence-entry: "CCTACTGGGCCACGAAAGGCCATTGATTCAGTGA"
  PBM binding z-score: 0.0675
